TESTED TARGET: human VEGF (human, UniProt P15692 27-191)
Sequence (P15692 other isoform, or with tags, fused parts or gaps limits assumed): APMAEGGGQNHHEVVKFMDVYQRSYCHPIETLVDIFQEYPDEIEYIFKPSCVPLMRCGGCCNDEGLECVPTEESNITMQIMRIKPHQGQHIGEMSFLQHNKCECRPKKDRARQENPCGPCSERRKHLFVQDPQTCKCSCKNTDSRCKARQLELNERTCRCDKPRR
ASSAY METHOD TEXT: cell-based or functional assay
ENDPOINT NAME: Inhibitory Activity (IC50, nM) against hVEGF in cell-based assays

BINDER	U	MEASURED VALUE
chagasin VEGF variant E4B-10 (designed binder) MSHKVTKAHNGATLTVAVGELVEIQLPSNYFYDGFAWYFEGGTKESPNESMFTVENKYFPDDPGSGLWGAGGTEHFHVTVKAAGTHAVNLTYMAPWSGPSRYLERFTVYLKAN	nM	610
chagasin VEGF variant L4X6-3 (designed binder) MSHKVTKAHNGATLTVAVGELVEIQLPSNYFNDGFAWYFEGGTKESPNESMFTVENKYFPGSSYWGGAGGTEHFHVTVKAAGTHAVNLTYMAPWAGPSRVLERFTVYLKAN	nM	710

Where these numbers come from: patent US20170174733A1
